biological target: Bile salt export pump (Homo sapiens); test: Inhibition of human BSEP overexpressed in Sf9 cell membrane vesicles assessed as uptake of [3H]-taurocholate in presence of ATP measured after 15 to 20 mins by membrane vesicle transport assay
Sequence (O95342 whole entry): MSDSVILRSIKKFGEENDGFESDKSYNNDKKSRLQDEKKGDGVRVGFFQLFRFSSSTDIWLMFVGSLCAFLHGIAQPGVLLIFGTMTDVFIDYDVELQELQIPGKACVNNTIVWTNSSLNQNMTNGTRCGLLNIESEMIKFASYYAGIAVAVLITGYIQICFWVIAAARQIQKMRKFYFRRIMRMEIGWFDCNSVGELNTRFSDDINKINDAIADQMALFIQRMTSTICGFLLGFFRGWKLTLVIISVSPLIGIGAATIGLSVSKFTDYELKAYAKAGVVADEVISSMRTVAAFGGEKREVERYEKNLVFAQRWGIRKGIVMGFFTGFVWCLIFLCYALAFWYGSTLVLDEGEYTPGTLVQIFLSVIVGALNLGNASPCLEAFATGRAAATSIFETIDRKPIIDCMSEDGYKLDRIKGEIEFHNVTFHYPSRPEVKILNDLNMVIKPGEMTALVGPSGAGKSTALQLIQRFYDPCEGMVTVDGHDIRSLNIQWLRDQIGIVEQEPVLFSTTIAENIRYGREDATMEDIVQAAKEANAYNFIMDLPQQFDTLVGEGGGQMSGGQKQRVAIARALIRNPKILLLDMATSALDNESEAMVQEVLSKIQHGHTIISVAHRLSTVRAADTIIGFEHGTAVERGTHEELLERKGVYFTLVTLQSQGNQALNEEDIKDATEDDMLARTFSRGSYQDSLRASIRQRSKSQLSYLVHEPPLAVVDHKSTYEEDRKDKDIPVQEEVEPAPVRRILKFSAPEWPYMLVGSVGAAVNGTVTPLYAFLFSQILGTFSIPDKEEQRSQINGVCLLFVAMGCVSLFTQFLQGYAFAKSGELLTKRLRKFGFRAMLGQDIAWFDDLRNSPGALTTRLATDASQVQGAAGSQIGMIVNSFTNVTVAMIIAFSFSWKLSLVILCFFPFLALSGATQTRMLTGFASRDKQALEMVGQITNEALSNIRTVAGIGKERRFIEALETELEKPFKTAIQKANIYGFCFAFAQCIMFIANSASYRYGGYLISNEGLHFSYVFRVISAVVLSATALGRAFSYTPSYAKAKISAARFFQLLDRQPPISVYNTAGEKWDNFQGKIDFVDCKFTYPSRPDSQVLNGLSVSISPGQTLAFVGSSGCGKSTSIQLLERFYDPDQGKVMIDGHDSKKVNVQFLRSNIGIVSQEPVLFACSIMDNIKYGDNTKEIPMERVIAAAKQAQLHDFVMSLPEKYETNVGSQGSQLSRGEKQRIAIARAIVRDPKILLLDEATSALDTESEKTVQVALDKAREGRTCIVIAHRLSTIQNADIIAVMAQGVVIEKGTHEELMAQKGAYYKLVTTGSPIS
pIC50: −log10 of the molar value.
Record form. Attribute: pIC50. Fill in for each entry.

Reported pIC50 of Clc1ccc(COC(Cn2ccnc2)c2ccc(Cl)cc2Cl)c(Cl)c1 (configuration not stated) [MICONAZOLE NITRATE] : 3.94

Reported pIC50 of `CC(=O)OCC(CCn1cnc2cnc(N)nc21)COC(C)=O` : < 3.88

Reported pIC50 of CN(Cc1cnc2nc(N)nc(N)c2n1)c1ccc(C(=O)N[C@@H](CCC(=O)O)C(=O)O)cc1 [METHOTREXATE] : < 3.88

Reported pIC50 of CN1CCOC(c2ccccc2)c2ccccc2C1 (configuration not stated) : < 3.88

Reported pIC50 of N#C/C(=C1/SCC(c2ccccc2Cl)S1)n1ccnc1 (configuration not stated) : 5.02

Reported pIC50 of O=C(O)CCC/C=C\CC1C(O)CC(O)C1/C=C/C(O)COc1cccc(Cl)c1 (configuration not stated) [CLOPROSTENOL SODIUM] : < 3.88

Reported pIC50 of COc1ccccc1OCCNCC(O)COc1cccc2[nH]c3ccccc3c12 (configuration not stated) : < 3.88

Reported pIC50 of Nc1nc2c(c(=O)[nH]1)N(C=O)C(CNc1ccc(C(=O)N[C@@H](CCC(=O)O)C(=O)O)cc1)CN2 (some centres not stated) : < 3.88

Reported pIC50 of `CCCc1nc(C(C)(C)O)c(C(=O)OCc2oc(=O)oc2C)n1Cc1ccc(-c2ccccc2-c2nnn[nH]2)cc1` : 5.33

Reported pIC50 of `OC[C@H]1O[C@@H](n2cnc3c2NC=NC[C@H]3O)C[C@@H]1O` : < 3.88

Reported pIC50 of `CO[C@H]1C[C@@H]2CC[C@@H](C)[C@@](O)(O2)C(=O)C(=O)N2CCCC[C@H]2C(=O)O[C@H]([C@H](C)C[C@@H]2CC[C@@H](OCCO)[C@H](OC)C2)CC(=O)[C@H](C)/C=C(\C)[C@@H](O)[C@@H](OC)C(=O)[C@H](C)C[C@H](C)/C=C/C=C/C=C/1C` : 5.70

Reported pIC50 of `Cc1onc(-c2ccccc2)c1-c1ccc(S(N)(=O)=O)cc1` : < 3.88

----------
biological target: ATP-binding cassette sub-family C member 4 (Homo sapiens); assay: Inhibition of human MRP4 overexpressed in Sf9 cell membrane vesicles assessed as uptake of [3H]-estradiol-17beta-D-glucuronide in presence of ATP and GSH measured after 20 mins by membrane vesicle transport assay
Sequence (O15439 whole entry): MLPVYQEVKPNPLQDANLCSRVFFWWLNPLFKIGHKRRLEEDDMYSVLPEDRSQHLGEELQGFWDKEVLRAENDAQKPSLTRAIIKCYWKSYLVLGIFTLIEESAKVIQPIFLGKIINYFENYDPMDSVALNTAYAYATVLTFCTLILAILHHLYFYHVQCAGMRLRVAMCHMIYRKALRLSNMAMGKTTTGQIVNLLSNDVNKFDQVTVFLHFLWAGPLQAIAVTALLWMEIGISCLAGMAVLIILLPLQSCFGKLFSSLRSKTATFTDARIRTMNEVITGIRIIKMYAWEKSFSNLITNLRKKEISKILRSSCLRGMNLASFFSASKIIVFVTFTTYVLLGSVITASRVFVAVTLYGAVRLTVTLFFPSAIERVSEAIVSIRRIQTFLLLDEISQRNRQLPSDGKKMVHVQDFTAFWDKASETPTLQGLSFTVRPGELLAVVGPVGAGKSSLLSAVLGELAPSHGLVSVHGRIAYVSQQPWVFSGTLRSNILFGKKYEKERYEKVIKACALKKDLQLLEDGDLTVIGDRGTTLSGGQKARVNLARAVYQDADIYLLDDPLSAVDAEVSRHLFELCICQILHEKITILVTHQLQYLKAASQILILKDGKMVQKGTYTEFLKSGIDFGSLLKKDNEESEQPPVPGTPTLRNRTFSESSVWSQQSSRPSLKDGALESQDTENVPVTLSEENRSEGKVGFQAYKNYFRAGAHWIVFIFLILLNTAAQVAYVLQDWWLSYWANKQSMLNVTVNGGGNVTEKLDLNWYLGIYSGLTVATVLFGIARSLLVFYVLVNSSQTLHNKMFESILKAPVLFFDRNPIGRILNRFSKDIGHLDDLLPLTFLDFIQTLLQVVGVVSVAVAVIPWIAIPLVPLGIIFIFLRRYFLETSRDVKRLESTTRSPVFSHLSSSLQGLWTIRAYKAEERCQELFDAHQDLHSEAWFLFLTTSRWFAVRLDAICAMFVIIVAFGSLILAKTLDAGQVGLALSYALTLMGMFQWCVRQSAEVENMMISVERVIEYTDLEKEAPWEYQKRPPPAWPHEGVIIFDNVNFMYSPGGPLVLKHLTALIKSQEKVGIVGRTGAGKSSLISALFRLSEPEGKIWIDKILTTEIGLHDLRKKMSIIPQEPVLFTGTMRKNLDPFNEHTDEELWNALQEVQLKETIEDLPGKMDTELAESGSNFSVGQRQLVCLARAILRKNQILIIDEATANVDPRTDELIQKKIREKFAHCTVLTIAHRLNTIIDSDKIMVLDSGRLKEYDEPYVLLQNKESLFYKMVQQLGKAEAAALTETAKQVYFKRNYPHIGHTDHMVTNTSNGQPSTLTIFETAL
pIC50: −log10 of the molar value. Structures can show the parent of a compound that is named as a salt.
Parameter: pIC50

Entry `CO[C@H]1/C=C/O[C@@]2(C)Oc3c(C)c(O)c4c(O)c(c(/C=N/N5CCN(C)CC5)c(O)c4c3C2=O)NC(=O)/C(C)=C\C=C\[C@H](C)[C@H](O)[C@@H](C)[C@@H](O)[C@@H](C)[C@H](OC(C)=O)[C@@H]1C` , ATP-binding cassette sub-family C member 4 (Homo sapiens) data, pIC50 value: 4.38

Entry C#CCN(C)[C@H](C)Cc1ccccc1 [SELEGILINE HYDROCHLORIDE] , ATP-binding cassette sub-family C member 4 (Homo sapiens) data, pIC50 value: < 3.88

Entry `N=C(N)NC(=O)Cc1c(Cl)cccc1Cl` , ATP-binding cassette sub-family C member 4 (Homo sapiens) data, pIC50 value: < 3.88

Entry NC(=O)N1c2ccccc2CC(=O)c2ccccc21 [OXCARBAZEPINE] , ATP-binding cassette sub-family C member 4 (Homo sapiens) data, pIC50 value: < 3.88

Entry COc1cc([C@@H]2c3cc4c(cc3[C@@H](O[C@@H]3O[C@@H]5CO[C@@H](C)O[C@H]5[C@H](O)[C@H]3O)[C@H]3COC(=O)[C@H]23)OCO4)cc(OC)c1O [ETOPOSIDE] , ATP-binding cassette sub-family C member 4 (Homo sapiens) data, pIC50 value: < 3.88

Entry `CC[C@H]1OC(=O)[C@H](C)[C@@H](O[C@H]2C[C@@](C)(OC)[C@@H](O)[C@H](C)O2)[C@H](C)[C@@H](O[C@@H]2O[C@H](C)C[C@H](N(C)C)[C@H]2O)[C@](C)(OC)C[C@@H](C)C(=O)[C@H](C)[C@@H](O)[C@]1(C)O` , ATP-binding cassette sub-family C member 4 (Homo sapiens) data, pIC50 value: < 3.88

----------
Record form. Attribute: IC50. Fill in for each entry.
biological target: ATP-binding cassette sub-family C member 4 (Homo sapiens); assay: Inhibition of human MRP4 overexpressed in Sf9 cell membrane vesicles assessed as uptake of [3H]-estradiol-17beta-D-glucuronide in presence of ATP and GSH measured after 20 mins by membrane vesicle transport assay
Where a name gives a salt, the structure may show the parent alone.

Entry CC(C)NCC(O)COc1ccc(COCCOC(C)C)cc1 (centres undefined) [BISOPROLOL FUMARATE] , ATP-binding cassette sub-family C member 4 (Homo sapiens) data, IC50 value: > 133 µM

Entry `CNC(=C[N+](=O)[O-])NCCSCc1ccc(CN(C)C)o1` , ATP-binding cassette sub-family C member 4 (Homo sapiens) data, IC50 value: > 133 µM

Entry `Nc1nc(=O)n([C@@H]2CS[C@H](CO)O2)cc1F` , ATP-binding cassette sub-family C member 4 (Homo sapiens) data, IC50 value: > 133 µM

Entry `COC(=O)Nc1nc2ccc(C(=O)c3ccccc3)cc2[nH]1` , ATP-binding cassette sub-family C member 4 (Homo sapiens) data, IC50 value: 15.5 µM
